The measurements presented in this section are drawn from PubChem BioAssay.

- Test System: Follistatin-related protein 3 (Homo sapiens)
- Test Method Notes: FSTL3 binders on small-molecule microarrays, primary screen, biochemical, small-molecule microarray, 635 nm fluorescence (AID 1105);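 note: score merges emission near 667 nm and signal to noise per printed spot across three slides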
- Stated Conditions: FSTL3 binding, higher = more signal
// composite z-score lookup, one value per entry
Property: composite z-score

>>> value("CC(C)c1ccc(NN2C(C(O)c3cccc(O)c3)C=CC3C(=O)N(c4ccccc4)C(=O)C32)cc1 (stereo not given)")
1.05
>>> value("CCCN1C(=O)[C@@]2(CCC(=O)OC(C)(C)C)N=C(c3ccc(OCCCO)cc3)O[C@H]2c2ccccc21")
0.874
>>> value("COc1cc2c(cc1OC)CN(C(=O)[C@@H]1[C@H]3C(=O)O[C@H](c4ccccc4)[C@H](c4ccccc4)N3[C@H](c3ccccc3OCCO)[C@@]13C(=O)Nc1ccc(C#CCNC(N)=O)cc13)CC2")
0.445
>>> value("O=C1C2C=CC(C(O)c3ccc(B(O)O)cc3)N(Nc3ccccc3)C2C(=O)N1c1ccccc1 (stereo not given)")
-0.593
>>> value("CCOC(=O)[C@H]1C[C@H]2O[C@@]23C[C@H]1C(=O)N1CCCC1[C@@H]3O[Si](C)(C)C(C)(C)C (stereo not given in full)")
-0.198
>>> value("O=C/C=C/c1ccc2c(c1)OCO2")
0.506
>>> value("CCOC(=O)C[C@H]1[C@H](OC(=O)Cc2ccc3c(c2)OCO3)[C@@H](NC(=O)C2CCCCC2)c2cc(OCCCO)ccc2N1C(=O)Cc1ccc(OC)cc1")
0.297
>>> value("Cc1cc(C)c(C(O)C2C=CC3C(=O)N(C)C(=O)C3N2Nc2ccccc2)c(C)c1 (stereo not given)")
0.38
>>> value("O=C(O)[C@@]1(Cc2ccccc2)N=C(c2ccc(OCCCO)cc2)O[C@H]1c1ccccc1")
0.0206
>>> value("CC(C)N1C(=O)c2ccccc2[C@@H](C(=O)NCCCN(C)C)[C@@H]1c1ccc(CO)cc1")
-0.85
>>> value("COCCOC(=O)N1C(=O)[C@@]2(c3cc(C#CCNC(N)=O)ccc31)[C@H](c1ccc(OCCO)cc1)N1[C@H](c3ccccc3)[C@H](c3ccccc3)OC(=O)[C@H]1[C@@H]2C(=O)N1CCc2cc(OC)c(OC)cc2C1")
1.17
>>> value("CCOC(=O)C[C@H]1[C@H](OC(=O)c2ccccc2-c2ccccc2)[C@@H](NC(=O)Cc2ccc(OC)cc2)c2cc(OCCCO)ccc2N1C(=O)c1ccccc1")
-0.0572
>>> value("C=C(C(=O)CC[C@H](OC(C)=O)c1ccc(OCCO)cc1)C(C)C")
0.876
>>> value("CCOC(=O)C[C@H]1[C@H](OC(=O)Cc2ccc3c(c2)OCO3)[C@@H](NC(=O)c2ccc(-c3ccccc3)cc2)c2cc(OCCCO)ccc2N1C(=O)c1ccccc1")
0.612
>>> value("CC(C)(C)OC(=O)CC[C@@]1(C(=O)NCCN2CCOCC2)N=C(c2ccc(OCCCO)cc2)O[C@@H]1c1ccccc1")
1.05
>>> value("O=C1C2C=CC(C(O)c3cccs3)N(Nc3ccccc3F)C2C(=O)N1c1ccccc1 (stereo not given)")
0.224
>>> value("COc1ccc(C(O)C2C=CC3C(=O)N(C)C(=O)C3N2Nc2ccccc2)cc1OCc1ccccc1 (stereo not given)")
0.814
>>> value("NCCCCCNC(=O)[C@H]1C[C@H]2C(=O)NCC(=O)N2[C@H]1c1cccc(OCCO)c1")
0.764
>>> value("COc1ccc([Si](C)(C)[C@@H]2[C@@H](CC(=O)N(CCO)Cc3ccccc3)O[C@]3(C(=O)N(C)c4ccccc43)[C@H]2C)cc1")
1.39
>>> value("CN(C)CCCCCCNC(=O)[C@H]1C[C@H]2C(=O)N[C@@H](CCCCN)C(=O)N2[C@H]1c1ccc(O)cc1")
1.65
>>> value("COCCOC(=O)N1C(=O)[C@@]2(c3cc(C#CCCO)ccc31)[C@H](c1ccccc1OCCO)N1[C@H](c3ccccc3)[C@H](c3ccccc3)OC(=O)[C@H]1[C@@H]2C(=O)N1CCN(c2ncccn2)CC1")
1.39
>>> value("CCCCC=C[C@@H](NC(=O)c1ccc(C(=O)OC)cc1)c1ccccc1")
0.279
>>> value("COCCCNC(=O)[C@@]1(C)c2ccccc2C(=O)N(Cc2cc(C(F)(F)F)cc(C(F)(F)F)c2)[C@H]1c1ccc(CO)cc1")
-0.875
>>> value("COCCOC(=O)N1C(=O)[C@@]2(c3cc(C#CCNC(N)=O)ccc31)[C@H](c1ccc(O)cc1)N1[C@H](c3ccccc3)[C@H](c3ccccc3)OC(=O)[C@H]1[C@@H]2C(=O)Nc1nc2ccccc2s1")
0.85
>>> value("CC(C)C(=C=CC[C@H](O)c1cccc(OCCO)c1)C[C@H](O)COCc1ccccc1")
-0.0234
>>> value("CCOC(=O)C1=CC[C@@H](c2ccccc2)N(S(=O)(=O)c2ccc(C)cc2)[C@H]1C(=O)OCC")
0.533
>>> value("O=C1C[C@@](C(=O)NC2CC2)(c2ccc([N+](=O)[O-])cc2)[C@@H](c2ccc(CO)cc2)N1CC12CC3CC(CC(C3)C1)C2")
0.925
>>> value("COC(=O)[C@@]1(Cc2ccc(OC)cc2)[C@H]2c3cc(C(=O)N4CCCC4)n(Cc4cc(F)cc5c4OCOC5)c3C[C@H]2CN1C(=O)c1ccccc1")
0.326
>>> value("N#Cc1ccc(NN2C(C(O)C3CCCCC3)C=CC3C(=O)N(c4ccccc4)C(=O)C32)cc1 (stereo not given)")
1.28
>>> value("Cc1ccc(S[C@]2(C(=O)NCC(C)C)CC(=O)N(Cc3ccccc3)[C@@H]2c2ccc(CO)cc2I)cc1")
0.75

* * *

- Tested on: Human papillomavirus type 1a protein E7 (residues 44-93)
- Test Method Notes: HPV1a E7 fragment binders on microarrays, primary screen, biochemical, small-molecule microarray, residues 44-93, 635 nm fluorescence (AID 1108);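 note: E7 fragment applied at 1 µg/mL in TBST for 1 h at 4 C; score combines spot fluorescence with its signal to noise ratio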
- Stated Conditions: small-molecule microarray binding, fluorescence 635 nm; higher = more signal
Label condition met when composite z-score >= 0.4; otherwise condition not met.

>>> assigned_label("O=C1OCCC=C[C@H]2OC34C=CCN(c5ccc6ccccc6c5)C(=O)[C@H]3N(CCCCCO)C(=O)[C@@H]4C12 (some centres not stated)")
"condition met"
>>> assigned_label("CC(c1ccccc1)C(O)C1C=CC2C(=O)NC(=O)C2N1Nc1ccccn1 (configuration not stated)")
"condition met"
>>> assigned_label("O=C1O[C@@H](c2ccccc2)[C@@H](c2ccccc2)N2[C@@H](c3ccc(O)cc3)[C@]3(C(=O)Nc4ccc(C#CC5=CCCCC5)cc43)[C@@H](C(=O)O)[C@H]12")
"condition not met"
>>> assigned_label("C=CCNC(=O)[C@H]1[C@@H]2C(=O)O[C@@H](c3ccccc3)[C@@H](c3ccccc3)N2[C@@H](c2ccc(O)cc2)[C@]12C(=O)N(C(=O)OCCOC)c1ccc(C#CCCO)cc12")
"condition met"
>>> assigned_label("COCC(=C=CC[C@H](O)c1ccc(OCCO)cc1)C[C@H](O)c1cc(Cl)cc(Cl)c1O")
"condition met"
>>> assigned_label("COc1ccc(C#Cc2ccc3c(c2)[C@]2(C(=O)N3)[C@H](c3ccc(O)cc3)N3[C@H](c4ccccc4)[C@H](c4ccccc4)OC(=O)[C@H]3[C@@H]2C(=O)N2CCCCCCC2)cc1")
"condition met"
>>> assigned_label("CCCN1C(=O)[C@]2(COC(c3ccc(OCCCO)cc3)=N2)Cc2ccccc21")
"condition not met"

* * *

- Test System: Dickkopf-related protein 1 (Homo sapiens)
- Test Method Notes: DKK1 binders on small-molecule microarrays, primary screen, biochemical, small-molecule microarray, 635 nm fluorescence scan (AID 1106);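 note: score merges emission near 667 nm with signal to noise over three replicate slides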
- Stated Conditions: DKK1 binding, higher = more signal
Would you please tag the item true (1) when its composite z-score is 0.4 or above, and false (0) when it is below?

>>> assigned_label("O=C1C2C=CC(C(O)c3ccc(F)cc3)N(Nc3ccccc3)C2C(=O)N1c1ccccc1 (centres undefined)")
"false (0)"
>>> assigned_label("C=CCC(OC(C)=O)[C@@H]1[C@@H](N(Cc2cccc3ccccc23)C(=O)c2ccc(C)cc2)c2cc(OCCCO)ccc2N1C(=O)Cc1ccc(OC)cc1 (some centres undefined)")
"true (1)"
>>> assigned_label("COc1cc(C(O)C2C=CC3C(=O)N(c4ccccc4)C(=O)C3N2Nc2ccc(C#N)cc2)cc(OC)c1OC (centres undefined)")
"false (0)"
>>> assigned_label("CC(C)(C)N1CC=CC23O[C@@H]4/C=C\\CCCOC(=O)C4[C@H]2C(=O)N(CCO)[C@@H]3C1=O (some centres undefined)")
"false (0)"
>>> assigned_label("COc1ccc(C#Cc2ccc3c(c2)[C@]2(C(=O)N3)[C@H](C(=O)NC[C@H](O)c3ccccc3)[C@H]3C(=O)O[C@H](c4ccccc4)[C@H](c4ccccc4)N3[C@@H]2c2ccc(OCCO)cc2)cc1")
"false (0)"
>>> assigned_label("CCOC(=O)C[C@H]1[C@H](OC(=O)Cc2ccc3c(c2)OCO3)[C@@H](NC(=O)C2CCCCC2)c2cc(OCCCO)ccc2N1C(=O)Cc1ccc(OC)cc1")
"false (0)"
>>> assigned_label("CN(C)CCCCNC(=O)[C@H]1C[C@H]2C(=O)N[C@@H](Cc3ccccc3)C(=O)N2[C@H]1c1ccc(O)cc1")
"true (1)"
>>> assigned_label("C=CCOC(=O)[C@@H]1[C@H]2C(=O)O[C@H](c3ccccc3)[C@H](c3ccccc3)N2[C@H](c2ccc(OCCOC(=O)[C@@H]3C[C@@H]4C(=O)N[C@@H](Cc5ccccc5)C(=O)N4[C@@H]3c3cccc(OCCO)c3)cc2)[C@@]12C(=O)Nc1ccc(I)cc12")
"true (1)"
>>> assigned_label("COC(=O)C[C@H]1O[C@]2(C(=O)N(Cc3ccccc3)c3ccc(NC(C)=O)cc32)[C@@H](C)[C@@H]1[Si](C)(C)c1ccc(OC)cc1")
"true (1)"
>>> assigned_label("COc1cc(CO)ccc1OC(C)=O")
"true (1)"
>>> assigned_label("O=C(CS)NCCCCCCNC(=O)[C@H]1C[C@H]2C(=O)N3CCC[C@H]3C(=O)N2[C@H]1c1cccc(OCCO)c1")
"true (1)"
>>> assigned_label("CCOC(=O)C1=C[C@@H](CC)N(S(=O)(=O)c2ccc(C)cc2)[C@H]1c1ccccc1")
"true (1)"
>>> assigned_label("CN(C)CCCNC(=O)[C@@]1(Cc2ccccc2I)c2ccccc2C(=O)N(Cc2ccccc2C(F)(F)F)[C@H]1c1ccc(CO)cc1")
"false (0)"
>>> assigned_label("O=C1N(CCS(=O)(=O)c2ccccc2)Cc2ccccc2C[C@]12N=C(c1ccc(OCCCO)cc1)O[C@@H]2c1ccccc1")
"true (1)"
>>> assigned_label("COC(=O)[C@@]1(Cc2ccccc2)[C@H]2c3cc(C(=O)N4CCCC4)n(Cc4ccc(C)o4)c3C[C@H]2CN1C(=O)c1ccccc1")
"false (0)"
>>> assigned_label("C=C(COC)C(=O)CC[C@@H](OC(=O)c1cccnc1)c1ccc(CO)o1")
"true (1)"
>>> assigned_label("O=C1N(CCS(=O)(=O)c2ccccc2)Cc2ccccc2[C@H]2OC(c3ccc(OCCCO)cc3)=N[C@@]12CCS(=O)(=O)c1ccccc1")
"false (0)"
>>> assigned_label("C=CC[C@@]1(C(=O)O)N=C(c2ccc(OCCCO)cc2)O[C@@H]1c1ccccc1N=[N+]=[N-]")
"false (0)"
>>> assigned_label("O=C1OCC=C[C@H]2OC34C=CCN(c5ccc(Cl)cc5)C(=O)[C@H]3N(CCCCCCO)C(=O)[C@@H]4[C@@H]12 (some centres undefined)")
"false (0)"
>>> assigned_label("CCCCC=C[C@@H](NC(=O)c1ccco1)c1ccccc1")
"false (0)"
>>> assigned_label("O=C(CS)NCCCCCCNC(=O)[C@@H]1C[C@@H]2C(=O)N3CCC[C@H]3C(=O)N2[C@@H]1c1ccc(O)cc1")
"false (0)"
>>> assigned_label("CC(=O)NCCCC[C@@H]1NC(=O)[C@H]2C[C@@H](C(=O)NCCCCCC[N+](C)(C)C)[C@@H](c3cccc(OCCO)c3)N2C1=O")
"true (1)"
>>> assigned_label("CCOC(=O)C1=CCC(C(C)(C)C)N(S(=O)(=O)c2ccc(C)cc2)C1 (centres undefined)")
"true (1)"
>>> assigned_label("O=C1O[C@H](c2ccccc2)[C@H](c2ccccc2)N2[C@H]1[C@@H](C(=O)NC[C@H](O)c1ccccc1)[C@]1(C(=O)Nc3ccc(C#CCCO)cc31)[C@H]2c1ccc(O)cc1")
"false (0)"
>>> assigned_label("C=CC[C@@]1(C(=O)N2CCOCC2)N=C(c2ccc(OCCCO)cc2)O[C@@H]1c1ccccc1N=[N+]=[N-]")
"false (0)"
>>> assigned_label("COc1c(C)cc(-c2cc3c(c(-c4ccc(Oc5ccccc5)cc4)n2)[Si](C(C)C)(C(C)C)OC3)cc1C")
"false (0)"
>>> assigned_label("CC(C)CNC(=O)[C@@]1(c2ccc([N+](=O)[O-])cc2)CC(=O)N(CC23CC4CC(CC(C4)C2)C3)[C@@H]1c1ccc(CO)cc1I")
"true (1)"
>>> assigned_label("CN1C(=O)C2C=CC(C(O)c3ccccn3)N(Nc3ccccc3)C2C1=O (centres undefined)")
"false (0)"
>>> assigned_label("COc1ccc(NN2C(C(O)c3ccc(OC)c(OCc4ccccc4)c3)C=CC3C(=O)N(C4CCCCC4)C(=O)C32)cc1 (centres undefined)")
"false (0)"
